measured_target: GST-DLG1 PDZ domain 1 (Homo sapiens), Q12959
experiment: G' assay; also: key of the grades not given here
Give Classification for every item shown.
Include the unit right after the number.

[[record]]
binder = "TQGFPGPATWRRISSLESEV (modifications not checked) [NMDA Glutamate Receptor 2C (cysteine-free)]"
observation_type = "Classification"
measurement = "5 A450 class"

[[record]]
binder = "PYSELNYETSHYPASPDSWV (modifications not checked) [catenin - delta 2]"
observation_type = "Classification"
measurement = "1 A450 class"


// for each binder in input: emit Classification
1. VGTLLLERVIFPSVKIATLV (modifications not checked) [AdenoE4 typ9]
2. QISPGGLEPPSEKHFRETEV (modifications not checked) [TAX]
3. SFTSILTCHQRRTQRKETVA (modifications not checked) [GluR5-2 (rat)]
4. ISGTPTSTMVHGMTSSSSVV (modifications not checked) [Clasp-2]

A:
["4 A450 class", "5 A450 class", "2 A450 class", "1 A450 class"]
